Values from patent US20240124412A1

Biological target: IKZF1 (Homo sapiens, UniProt Q13422+Q96SW2)
Construct: expressed in transfected cells
Sequence (Q13422 whole entry): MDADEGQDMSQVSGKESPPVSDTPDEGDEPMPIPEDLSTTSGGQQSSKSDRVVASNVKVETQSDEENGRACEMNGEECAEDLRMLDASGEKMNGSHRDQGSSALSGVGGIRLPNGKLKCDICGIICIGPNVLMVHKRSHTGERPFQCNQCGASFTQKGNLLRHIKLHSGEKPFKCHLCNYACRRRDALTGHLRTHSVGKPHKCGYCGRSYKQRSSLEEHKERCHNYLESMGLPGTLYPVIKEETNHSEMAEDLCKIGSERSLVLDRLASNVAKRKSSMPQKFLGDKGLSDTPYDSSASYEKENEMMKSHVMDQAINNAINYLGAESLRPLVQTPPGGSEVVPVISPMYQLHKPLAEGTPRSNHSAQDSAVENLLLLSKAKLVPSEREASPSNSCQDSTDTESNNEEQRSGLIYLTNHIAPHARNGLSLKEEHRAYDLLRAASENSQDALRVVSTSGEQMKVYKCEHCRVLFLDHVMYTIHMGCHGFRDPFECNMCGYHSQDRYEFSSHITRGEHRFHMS
Sequence (Q96SW2 whole entry): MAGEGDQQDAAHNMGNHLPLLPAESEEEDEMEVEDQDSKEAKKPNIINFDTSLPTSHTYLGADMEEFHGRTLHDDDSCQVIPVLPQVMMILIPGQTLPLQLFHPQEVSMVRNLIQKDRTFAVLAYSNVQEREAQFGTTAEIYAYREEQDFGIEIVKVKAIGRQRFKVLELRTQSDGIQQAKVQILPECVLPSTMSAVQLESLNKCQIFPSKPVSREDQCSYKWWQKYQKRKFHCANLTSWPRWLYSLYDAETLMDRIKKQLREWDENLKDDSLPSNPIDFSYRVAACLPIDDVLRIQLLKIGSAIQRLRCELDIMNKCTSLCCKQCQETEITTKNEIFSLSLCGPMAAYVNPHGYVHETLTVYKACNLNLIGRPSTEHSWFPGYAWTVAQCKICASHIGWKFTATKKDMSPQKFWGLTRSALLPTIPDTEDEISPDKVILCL
Sequence (Q16531 whole entry partner): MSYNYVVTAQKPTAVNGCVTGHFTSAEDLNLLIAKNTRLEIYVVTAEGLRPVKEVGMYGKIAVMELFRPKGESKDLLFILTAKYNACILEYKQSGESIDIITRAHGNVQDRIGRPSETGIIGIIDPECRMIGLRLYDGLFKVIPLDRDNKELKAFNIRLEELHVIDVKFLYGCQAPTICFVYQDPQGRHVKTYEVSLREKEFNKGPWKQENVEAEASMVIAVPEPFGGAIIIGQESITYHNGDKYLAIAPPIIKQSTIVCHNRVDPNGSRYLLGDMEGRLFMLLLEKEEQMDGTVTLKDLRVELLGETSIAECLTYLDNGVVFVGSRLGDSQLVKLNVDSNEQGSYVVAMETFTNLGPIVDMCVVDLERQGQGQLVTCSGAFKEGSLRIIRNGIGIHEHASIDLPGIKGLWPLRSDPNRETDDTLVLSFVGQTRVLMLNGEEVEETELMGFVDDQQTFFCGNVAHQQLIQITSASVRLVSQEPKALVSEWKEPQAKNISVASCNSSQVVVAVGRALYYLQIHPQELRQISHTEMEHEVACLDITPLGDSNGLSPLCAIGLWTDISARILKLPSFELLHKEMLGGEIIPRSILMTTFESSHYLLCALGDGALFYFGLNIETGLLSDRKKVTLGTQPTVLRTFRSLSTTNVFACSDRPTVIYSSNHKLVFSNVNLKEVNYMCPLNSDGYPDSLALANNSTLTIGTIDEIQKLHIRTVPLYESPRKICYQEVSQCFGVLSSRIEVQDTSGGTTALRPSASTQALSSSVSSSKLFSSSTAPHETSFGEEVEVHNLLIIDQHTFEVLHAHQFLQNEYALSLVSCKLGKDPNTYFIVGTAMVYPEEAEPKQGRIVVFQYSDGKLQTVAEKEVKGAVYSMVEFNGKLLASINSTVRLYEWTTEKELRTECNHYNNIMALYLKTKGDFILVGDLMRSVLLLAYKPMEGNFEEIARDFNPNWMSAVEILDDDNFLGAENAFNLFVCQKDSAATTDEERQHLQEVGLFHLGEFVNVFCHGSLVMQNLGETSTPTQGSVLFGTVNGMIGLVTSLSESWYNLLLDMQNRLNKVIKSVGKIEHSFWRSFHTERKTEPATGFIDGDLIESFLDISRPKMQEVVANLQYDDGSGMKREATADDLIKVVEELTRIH
Assay: HiBiT protein tagging assay, in vitro IKZF1 degradation (HEK293)
Type: cell-based
Settings: HEK293, 18-24 hr incubation, normalized to DMSO control, read-out: IKZF1 EC50
Description: In vitro degradation of IKZF1 and IKZF2 was measured using HiBiT protein tagging and detection technology (Promega). HiBiT technology (Promega) was used to develop the quantitative assays to measure the cellular IKZFs level by tagging an 11 amino acid HiBit peptides VSGWRLFKKIS (SEQ ID NO:1) to the protein of interest. Reporter plasmids were generated by fusing a linker sequence (GSSGGSSG; SEQ ID NO:2) followed by the HiBiT tag at the C terminus of IKZF1 and IKZF2. […]
Could you mark each record class 1 if its DC50 falls strictly under 100 nM, and class 0 if it equals or exceeds it?

compound="CC1(C)C[C@]2(CC[C@@H](NCc3ccc4c(c3)CN(C3CCC(=O)NC3=O)C4=O)CC2)CO1 (stereo partly drawn)" group_label="class 0"

Report whether reported DC50 is lower than 100 nM (strictly) for O=C1CCC(N2Cc3cc(CNC4CCN(Cc5ccccc5)C(=O)C4)ccc3C2=O)C(=O)N1 (stereo not drawn) class 0

Field: below-cutoff. Rule: recorded DC50 strictly less than 100 nM. Subject: O=C1CCC(N2Cc3cc(CN[C@H]4CCC[C@H](Cc5ccccc5)C4)ccc3C2=O)C(=O)N1 (relative stereo) class 1

Hello, is DC50 of the following compound strictly smaller than 100 nM? O=C1CCC(N2Cc3cc(CN[C@H](CO)Cc4ccccc4)ccc3C2=O)C(=O)N1 (stereo partly drawn) class 0

Input C[C@@H](CO)NCc1ccc2c(c1)CN(C1CCC(=O)NC1=O)C2=O (stereo partly drawn) ; condition: DC50 strictly below 100 nM. Does it hold? class 0

Item CCCO[C@H]1CC[C@H](NCc2ccc3c(c2)CN(C2CCC(=O)NC2=O)C3=O)CC1 (stereo partly drawn) : DC50 beneath 100 nM, strictly? class 0

Bench note: check whether C[C@@H]1[C@H](NCc2ccc3c(c2)CN(C2CCC(=O)NC2=O)C3=O)CCCN1Cc1ccccc1 (stereo partly drawn) shows DC50 below 100 nM class 1

# TODO verify DC50 < 100 nM strictly for this compound: CO[C@@H]1CCCC[C@@H]1NCc1ccc2c(c1)CN(C1CCC(=O)NC1=O)C2=O (stereo partly drawn) class 1

I'd appreciate it if you could check whether O=C1CCC(N2Cc3cc(CNC4CC5CC(C5)C4)ccc3C2=O)C(=O)N1 (stereo not drawn) has DC50 smaller than 100 nM. class 1

I'd appreciate it if you could check whether O=C1CCC(N2Cc3cc(CNC4CCN(c5cccnc5)CC4)ccc3C2=O)C(=O)N1 (stereo not drawn) has DC50 smaller than 100 nM. class 1

Dear colleague, could you confirm whether DC50 of O=C1CCC(N2Cc3cc(CN[C@@H]4CCCN(Cc5cccnc5)C4)ccc3C2=O)C(=O)N1 (stereo partly drawn) falls below 100 nM? Thanks. class 0

Given the entry O=C1CCC(N2Cc3cc(CNC4CCCC(c5ccccc5)C4)ccc3C2=O)C(=O)N1 (stereo not drawn) , would its reported DC50 be below 100 nM? class 1

In the record for O=C1CCC(N2Cc3cc(CN[C@H]4CCC[C@@H]4NCc4ccccc4)ccc3C2=O)C(=O)N1 (stereo partly drawn) , is DC50 less than 100 nM? class 0

Identify whether the compound O=C1CCC(N2Cc3cc(CN[C@@H]4CCCN(Cc5ccccc5Cl)C4)ccc3C2=O)C(=O)N1 (stereo partly drawn) records DC50 below 100 nM. class 1

Does O=C1CCC(N2Cc3cc(CNC4CCc5cccnc5C4)ccc3C2=O)C(=O)N1 (stereo not drawn) have DC50 strictly under 100 nM? class 1

Given O=C1CCC(N2Cc3cc(CN[C@H]4CCCc5ccccc54)ccc3C2=O)C(=O)N1 (stereo partly drawn) , is recorded DC50 strictly lower than 100 nM? class 1

Does this compound meet the criterion DC50 < 100 nM? O=C1CCC(N2Cc3cc(CN[C@@H]4CCC[C@H](OCc5ccccc5)C4)ccc3C2=O)C(=O)N1 (stereo partly drawn) class 1

Bench note: check whether O=C1CCC(N2Cc3cc(CN[C@@H]4CCC[C@H](COCc5ccccc5)C4)ccc3C2=O)C(=O)N1 (stereo partly drawn) shows DC50 below 100 nM class 1

DC50 under 100 nM? Item: O=C1CCC(N2Cc3cc(CNC4CCC(Cc5ccccc5)CC4)ccc3C2=O)C(=O)N1 (stereo not drawn) class 0

Say whether its DC50 is strictly beneath 100 nM. Entry: CC1(C)CCC(NCc2ccc3c(c2)CN(C2CCC(=O)NC2=O)C3=O)CC1 (stereo not drawn) class 1

Is the reported DC50 for N#CC1CCCC(NCc2ccc3c(c2)CN(C2CCC(=O)NC2=O)C3=O)C1 (stereo not drawn) strictly below 100 nM? class 0

* * *

biological target: IKZF1 (Homo sapiens, UniProt Q13422+Q96SW2); construct: expressed in transfected cells; assay: HiBiT protein tagging assay, in vitro IKZF1 degradation (HEK293); type: cell-based; conditions: HEK293, 18-24 hr incubation, normalized to DMSO control, read-out: IKZF1 Dmax (maximum degradation at the highest concentration tested)
Doc: threshold 80% (exclusive). Items with Dmax beneath it return 1; others return 0.

compound="O=C1CCC(N2Cc3cc(CN[C@@H]4CCC[C@H](C(=O)c5ccccc5)C4)ccc3C2=O)C(=O)N1 (some centres unmarked)" group_label=1
compound="C[C@@]1(NCc2ccc3c(c2)CN(C2CCC(=O)NC2=O)C3=O)CCCN(Cc2ccccc2)C1 (some centres unmarked)" group_label=0

Confirm or reject: Dmax of O=C1CCC(N2Cc3cc(CN[C@H]4CC[C@@H](C(F)(F)F)CC4)ccc3C2=O)C(=O)N1 (some centres unmarked) lies strictly below 80% 1

Strictly below 80% in Dmax? CO[C@H]1CC[C@H](NCc2ccc3c(c2)CN(C2CCC(=O)NC2=O)C3=O)CC1 (some centres unmarked) 1

Take the compound O=C1CCC(N2Cc3cc(CNC4CCN(c5ccncc5)CC4)ccc3C2=O)C(=O)N1 (centres unmarked) and say whether its Dmax is less than 80%. 1

Could you please tell me whether Dmax recorded for CCCC[C@H]1CC[C@H](NCc2ccc3c(c2)CN(C2CCC(=O)NC2=O)C3=O)CC1 (some centres unmarked) is less than 80%? 1

Threshold test, Dmax < 80%: O=C1CCC(N2Cc3cc(CN[C@H]4CC[C@](O)(c5ccccc5)CC4)ccc3C2=O)C(=O)N1 (some centres unmarked) 0

* * *

target: IKZF1 (Homo sapiens, UniProt Q13422+Q96SW2); construct: expressed in transfected cells; test: HiBiT protein tagging assay, in vitro IKZF1 degradation (HEK293); type: cell-based; settings: HEK293, 18-24 hr incubation, normalized to DMSO control, read-out: IKZF1 EC50
# maps each entry to its DC50
Output spec: scalar in nM, unitless text.

Here's what some known entries look like.
compound="O=C1CCC(N2Cc3cc(CN[C@@H]4CCCN(c5ccccc5)C4)ccc3C2=O)C(=O)N1 (stereo partly drawn)" reported_result=90
compound="O=C1CCC(N2Cc3cc(CNCC4CCCc5ccccc54)ccc3C2=O)C(=O)N1 (stereo not drawn)" reported_result=25
compound="O=C1CCC(N2Cc3cc(CN[C@H]4CCC[C@@H](Oc5ccccc5)C4)ccc3C2=O)C(=O)N1 (stereo partly drawn)" reported_result=105
compound="O=C1CCC(N2Cc3cc(CN[C@H]4CCC[C@@H](Cc5ccccc5)C4)ccc3C2=O)C(=O)N1 (relative stereo) [Example 12]" reported_result=3
compound="C[C@H]1CC[C@@H](NCc2ccc3c(c2)CN(C2CCC(=O)NC2=O)C3=O)CN1Cc1ccccc1 (stereo partly drawn)" reported_result=17

Fill in DC50 for record O=C1CCC(N2Cc3cc(CNC4CCCC4)ccc3C2=O)C(=O)N1 (stereo not drawn) 131

Input C[C@@H]1CC[C@@H](NCc2ccc3c(c2)CN(C2CCC(=O)NC2=O)C3=O)CN1Cc1ccccc1 (stereo partly drawn) , output reported DC50. 27

Look up and state reported DC50 for O=C1CCC(N2Cc3cc(CN[C@H]4CCOc5ccccc54)ccc3C2=O)C(=O)N1 (stereo partly drawn) 31

Provide one value: measured DC50 of O=C1CCC(N2Cc3cc(CN[C@H]4CCCC[C@H]4OCc4ccccc4)ccc3C2=O)C(=O)N1 (stereo partly drawn) 2

Output DC50 of O=C1CCC(N2Cc3cc(CN[C@@H]4CCC[C@H]([C@H](O)c5ccccc5)C4)ccc3C2=O)C(=O)N1 (stereo partly drawn) 99

* * *

biological target: IKZF1 (Homo sapiens, UniProt Q13422+Q96SW2); construct: expressed in transfected cells; test: HiBiT protein tagging assay, in vitro IKZF1 degradation (HEK293); type: cell-based; conditions: HEK293, 18-24 hr incubation, normalized to DMSO control, read-out: IKZF1 Dmax (maximum degradation at the highest concentration tested)
// reported Dmax per item
# number then unit; no other words

Example entries begin here.
compound="O=C1CCC(N2Cc3cc(CNC4CCC(Cc5ccccc5)CC4)ccc3C2=O)C(=O)N1 (centres unmarked) [Example 10]" assayed_system="IKZF1 (Homo sapiens, UniProt Q13422+Q96SW2)" reported_result=51%
compound="O=C1CCC(N2Cc3cc(CN[C@H]4CCCN(Cc5ccccc5)C4)ccc3C2=O)C(=O)N1 (some centres unmarked) [Example 21]" assayed_system="IKZF1 (Homo sapiens, UniProt Q13422+Q96SW2)" reported_result=79%
compound="O=C1CCC(N2Cc3cc(CNC4CC5CCC4C5)ccc3C2=O)C(=O)N1 (centres unmarked) [Example 42]" assayed_system="IKZF1 (Homo sapiens, UniProt Q13422+Q96SW2)" reported_result=30%

Specify measured Dmax for O=C1CCC(N2Cc3cc(CN[C@H]4CCCc5ccccc54)ccc3C2=O)C(=O)N1 (some centres unmarked) [Example 43] . 71%

Supply reported Dmax belonging to this compound: O=C1CCC(N2Cc3cc(CNC4CCCC5(CC5)C4)ccc3C2=O)C(=O)N1 (centres unmarked) [Example 132] 58%

Give Dmax for C[C@@H]1CCCC[C@@H]1NCc1ccc2c(c1)CN(C1CCC(=O)NC1=O)C2=O (some centres unmarked) [Example 46] 36%

Specify reported Dmax for the compound shown: O=C1CCC(N2Cc3cc(CN[C@@H]4CCc5ccccc5C4)ccc3C2=O)C(=O)N1 (some centres unmarked) [Example 14] 35%

Give reported Dmax value for CC1(C)CCC(NCc2ccc3c(c2)CN(C2CCC(=O)NC2=O)C3=O)CC1 (centres unmarked) [Example 140] 60%
